- System: 786-0
- experiment: NCI tumour cell line growth inhibition, 48 h
Activity calls are given as the source filed them. Rule as the data show it: active = GI50 up to about 1.1 µM and inactive = higher.
Please reply with one of these outcomes: active, inactive

Before answering, review these 3 worked examples.
# compound, labelValue
rows = [
    ("COc1cc2c(c(OC)c1OC)-c1ccc(SC)c(=O)cc1C(NC=O)CC2 (centres undefined)", "active"),
    ("Cc1cc(C)c2c(=N)c3ccccc3n(CCCCCCO)c2n1", "inactive"),
    ("O=C(NC1CCCC1=O)c1ccccc1 (centres undefined)", "inactive"),
]

Next, consider the following compound.
What outcome does the record of this test show for CCc1c(OC(C)=O)c2c(NC3OC(COC(C)=O)C(OC(C)=O)C(OC(C)=O)C3OC(C)=O)nc(SC)nc2oc1=O (centres undefined) ?
inactive

----------
- Tested on: UO-31
- experiment: NCI tumour cell line growth inhibition, 48 h
The source made the active and inactive calls. Cut-off read from the data, not from the text of the source: active = GI50 up to about 1.1 µM and inactive = higher.
metricName: GI50

Study these solved cases before continuing.
# compound, GI50
measured = [
    ("Nc1ncn(C2C=C(CO)C(O)C2O)c(=O)n1 (centres undefined)", "92.7 µM (inactive)"),
    ("CC(C)c1cc(OCC(O)CO)cc(C(C)C)c1 (centres undefined)", "> 100 µM (inactive)"),
    ("COc1cc(C2C(Cl)C(=O)N2NC(=O)c2ccc(N)cc2)ccc1O (centres undefined)", "> 100 µM (inactive)"),
    ("COC1=C(Br)C(O)C2(C=C1Br)CC(C(=O)NCCCCNC(=O)C1=NOC3(C=C(Br)C(OC)=C(Br)C3O)C1)=NO2 (centres undefined)", "43.2 µM (inactive)"),
    ("O=C(/C=C/c1ccccc1)c1cc(C(=O)/C=C/c2ccccc2)c(O)cc1O", "41.3 µM (inactive)"),
]

Quick one: give me GI50 for each item below, same order please.
1. Cc1cc(Cc2cc(Cc3cc(C)cc(C(C)(C)C)c3O)c(C)cc2C)c(O)c(C(C)(C)C)c1
2. Cc1cn(CCOCCOC(=O)NC(CCCNC(=N)N)C(=O)O)c(=O)[nH]c1=O (centres undefined)
3. CO[C@H]1[C@@H](O)[C@H](O[C@@H]2C[C@H]3CC[C@@H]4[C@H](CC[C@]5(C)[C@@H](C6=CC(=O)OC6)CC[C@]45O)[C@@]3(C)[C@H](OC(C)=O)C2)O[C@@H](C)[C@H]1O
4. CN(C)c1n/c(=N/Cc2cccs2)ss1

18.1 µM (inactive)
> 100 µM (inactive)
1.27 µM (inactive)
> 10 µM (inactive)

----------
- Tested on: ACHN
- experiment: NCI tumour cell line growth inhibition, 48 h
The source made the active and inactive calls. Cut-off read from the data, not from the text of the source: active = GI50 up to about 1.1 µM and inactive = higher.
Please reply with one of these outcomes: active, inactive

Before answering, review these 4 worked examples.
# compound, experimentalTarget, labelValue
measured = [
    ("CC[C@@H]1C[C@@H]2CN3CCc4c([nH]c5ccc(OC)cc45)C(COC(=O)c4ccc(OC)c(OC)c4)(C2)C13", "ACHN", "inactive"),
    ("S=C1CNC(=S)CN1", "ACHN", "inactive"),
    ("CC(=O)Oc1ccc(/C=C/C(=O)OCCOC(=O)/C=C/c2ccc(OC(C)=O)c(OC(C)=O)c2)cc1OC(C)=O", "ACHN", "inactive"),
    ("CCOC(=O)c1cc2c([N+](=O)[O-])c(NC(C)=O)ccc2s1", "ACHN", "inactive"),
]

What outcome does the record of this test show for C=C1C(=O)OC2/C=C(/C)C(OC(C)=O)C/C=C(\C)C(OC(=O)C3(C)OC3C)C(O)C12 (stereo not drawn) ?
inactive

What outcome does the record of this test show for O=[N+]([O-])c1ccc(Cl)c(C2SCc3nc4ccccc4n32)c1 (stereo not drawn) ?
inactive

What outcome does the record of this test show for CC(=O)OCC1OC(Sc2ccccn2)C=CC1OC(C)=O (stereo not drawn) ?
inactive

What outcome does the record of this test show for Cc1ccccc1NC(=O)C(=O)CC(=O)c1sc(Nc2ccccc2[N+](=O)[O-])nc1C ?
inactive

What outcome does the record of this test show for COc1ccc(OCC(=O)O)c2c1CCC(C)C2=O (stereo not drawn) ?
inactive

What outcome does the record of this test show for CC(=O)OCCOCn1c2c(c(=O)[nH]c1=O)CCC2 ?
inactive

What outcome does the record of this test show for CN1C2(c3ccccc3)c3c(-c4ccccc4)sc(-c4ccccc4)c3C1(c1ccccc1)C1C(=O)N(c3ccccc3)C(=O)C12 (stereo not drawn) ?
inactive

What outcome does the record of this test show for CCOC(=O)c1cc(-c2ccn(C(C)=O)c2)c(-c2cc(C)co2)[nH]1 ?
inactive

What outcome does the record of this test show for O=C(/C=C/c1ccc(Cl)cc1)c1ccccc(=O)c1O ?
active

What outcome does the record of this test show for COC(=O)c1cc(C(=CCC[C@H]2CC[C@@]3(C)C(CCC4C3CC[C@@]3(C)C4CC[C@@H]3C(C)CCCC(C)C)C2)c2cc(Cl)c(OC(=O)c3ccccc3)c(C(=O)OC)c2)cc(Cl)c1OC(=O)c1ccccc1 (stereo partly drawn) ?
inactive

What outcome does the record of this test show for O=C1C(=C(C(=O)c2ccccc2)C(=O)c2ccccc2)OC(c2ccccc2)=C1C(=O)c1ccccc1 ?
inactive

What outcome does the record of this test show for CS(=O)(=O)c1ccc(-c2cc(-c3ccc(S(C)(=O)=O)cc3)[n+](-c3cc(-c4ccccc4)c([O-])c(-c4ccccc4)c3)c(-c3ccc(S(C)(=O)=O)cc3)c2)cc1 ?
inactive

What outcome does the record of this test show for c1ccc(C2CC(N3CCOCC3)=Nc3ccccc3N2)cc1 (stereo not drawn) ?
inactive

What outcome does the record of this test show for COc1ccc(/C=C2\CCC(C)/C(=C\c3ccc(OC)c(OC)c3)C2=O)cc1OC (stereo not drawn) ?
inactive

----------
- System: NCI-H522
- experiment: NCI tumour cell line growth inhibition, 48 h
Activity calls are given as the source filed them. Cut-off read from the data, not from the text of the source: active = GI50 up to about 1.1 µM and inactive = higher.
I'd appreciate it if you could supply GI50 values for the items below.

Study these solved cases before continuing.
# molecule, GI50
rows = [
    ("O=c1oc2ccccc2cc1-c1csc(Nc2ccc(F)cc2)n1", "1.91 µM (inactive)"),
    ("CCCCc1ccc2[n+](c1)C(C(=O)OCC)=PC2 (stereo not drawn)", "54.2 µM (inactive)"),
]

Quick one: give me GI50 for each item below, same order please.
1. C=CC1(O)CCCC=C1COCc1ccccc1 (stereo not drawn)
2. Nc1ncn(C2C=C(CO)C(O)C2O)c(=O)n1 (stereo not drawn)
3. CCC(=O)O[C@H]1CC[C@H]2[C@@H]3CCC4=C/C(=N/NC(=O)c5cccc6c(=O)c7ccccc7[nH]c56)CC[C@]4(C)[C@H]3CC[C@]12C
4. CCOC(=O)NC(=S)NC(C)c1ccccc1 (stereo not drawn)

["16 µM (inactive)", "37.2 µM (inactive)", "> 25 µM (inactive)", "> 100 µM (inactive)"]

----------
- Test system: UO-31
- experiment: NCI tumour cell line growth inhibition, 48 h
The source made the active and inactive calls. Cut-off read from the data, not from the text of the source: active = GI50 up to about 1.1 µM and inactive = higher.
metricName: GI50

Study these solved cases before continuing.
# molecule, GI50
rows = [
    ("CCCCCCC1CCC2CCCC(C)N12 (stereo unspecified)", "19.7 µM (inactive)"),
    ("Cc1ccc(/N=N/C2S/C(=C(\\C#N)c3nc4ccccc4[nH]3)N(c3ccccc3)C2=O)cc1 (stereo unspecified)", "39 µM (inactive)"),
    ("Cc1ccc(NC(=O)CCC(=O)C(C#N)c2ccc(Cl)cc2)cc1C (stereo unspecified)", "> 100 µM (inactive)"),
    ("CN1C(c2ccccc2)CC(O)CC1c1ccccc1 (stereo unspecified)", "> 100 µM (inactive)"),
    ("O=C(NC1CCCC1=O)c1ccccc1 (stereo unspecified)", "> 100 µM (inactive)"),
]

Lab note: next molecule to report on.
Consider the molecule shown here: CC(Oc1ccccc1Cl)C(=O)NN1C(=O)CSC1c1ccc(Cl)cc1 (stereo unspecified) What is its recorded GI50?
35.1 µM (inactive)

----------
- System: CCRF-CEM
- experiment: NCI tumour cell line growth inhibition, 48 h
Calls of active or inactive are those of the source. Cut-off read from the data, not from the text of the source: active = GI50 up to about 1.1 µM and inactive = higher.
Please reply with one of these outcomes: active, inactive

What outcome does the record of this test show for CC(=O)Oc1ccc(/C=C/C(=O)OCCOC(=O)/C=C/c2ccc(OC(C)=O)c(OC(C)=O)c2)cc1OC(C)=O ?
inactive

What outcome does the record of this test show for O=c1c(NO)c([N+](=O)[O-])cnn1-c1ccccc1 ?
active

----------
- Tested on: SW-620
- experiment: NCI tumour cell line growth inhibition, 48 h
The source made the active and inactive calls. Rule as the data show it: active = GI50 up to about 1.1 µM and inactive = higher.
Please reply with one of these outcomes: active, inactive

Before answering, review these 5 worked examples.
# compound, labelValue
measured = [
    ("C=C(C)C(=O)O[C@H]1C[C@@]23O[C@@H]2CCC(=C[C@H]2OC(=O)C(=C)[C@H]12)COC3O (stereo not given in full)", "inactive"),
    ("N#Cc1c(N)oc(-c2ccc([N+](=O)[O-])cc2)c1C#N", "inactive"),
    ("CSc1nc(C)c(CCOC(C)=O)c(N=P(c2ccccc2)(c2ccccc2)c2ccccc2)n1", "inactive"),
    ("COC(=O)c1c(-c2cc(OC)c(OC)c(OC)c2)oc2ccccc2c1=O", "inactive"),
    ("COc1ccc(Cc2nc3ccccc3s2)cc1OC", "inactive"),
]

What outcome does the record of this test show for Cc1ccc2c(c1)C(=O)c1nc(C)ccc1C2=O ?
inactive

What outcome does the record of this test show for COc1cc([C@H]2c3cc4c(cc3O[C@@]3(O)COC(=O)[C@@H]23)OCO4)cc(OC)c1OC ?
inactive

What outcome does the record of this test show for O=[N+]([O-])C(/C=C(\Cl)[N+](=O)[O-])=C1Nc2ccccc2N1 ?
inactive

What outcome does the record of this test show for CC(C(=O)N1c2ccccc2Sc2ccccc21)N1c2ccccc2Sc2ccccc21 (stereo not given) ?
inactive
